Recorded values, source ChEMBL document CHEMBL1131427.

IC50 listing for selected compounds.
# System: Cytomegalovirus
# assay.notes: Anti CMV (Cytomegalovirus- virus) activity against Davis strain in HEL cells
# Type: functional, organism-based
# reported.conditions: Human betaherpesvirus 5, HEL
attribute.measured: IC50 (µg/mL)

>>> df
                     query_smiles  target_under_test  attribute_measured  measured_value
0  Cc1ccn2c(CSCc3ccccc3)c(C)nc2c1    Cytomegalovirus                IC50             3.5
1     Cc1ccn2c(CSCc3ccccc3)cnc2c1    Cytomegalovirus                IC50             3.5
2       Cc1nc2ccccn2c1CSCc1ccccc1    Cytomegalovirus                IC50            0.13
3   Cc1ccn2c(CSCc3ccccc3Cl)cnc2c1    Cytomegalovirus                IC50             0.7

---

# assay.notes: Ratio of Cytotoxicity concentration to that of virus-inhibitory concentration.
# Format: functional
Selectivity index listing for selected molecules.
attribute.measured: Selectivity index

                              query_smiles  comparator  measured_value
 0             Cc1ccc2ncc(CSCc3ccccc3)n2c1           =              77
 1         Cc1cc(Br)cn2c(CSCc3ccccc3)cnc12           >             417
 2          Cc1ccn2c(CSCc3ccccc3)c(C)nc2c1           >              15
 3         Cc1cc(Br)c2ncc(CSCc3ccccc3)n2c1           >              45
 4               Cc1nc2ccccn2c1CSCc1ccccc1           =             275
 5             Cc1ccn2c(CSCc3ccccc3)cnc2c1           =              13
 6           Cc1ccn2c(CSCc3ccccc3Cl)cnc2c1           =              36
 7         Cc1ccn2c(CSCc3ccc(Cl)cc3)cnc2c1           =              16
 8             Cc1cccn2c(CSCc3ccccc3)cnc12           =              40
 9  Cc1cccn2c(CSCc3ccccc3)c(-c3ccccc3)nc12           =              11
10            Cc1ccn2c(CSCCc3ccccc3)cnc2c1           >             151
11  FC(F)(F)c1cc(Cl)c2ncc(CSCc3ccccc3)n2c1           <               8
12          Cc1ccc(C)n2c(CSCc3ccccc3)cnc12           =             2.5

---

# System: Human alphaherpesvirus 3
# assay.notes: Anti-VZV activity against YS TK+ in HEL cells
# Type: functional, organism-based
# reported.conditions: Human alphaherpesvirus 3, HEL
attribute.measured: IC50 (µg/mL)

In [3]: df
Out[3]:
                                    compound  comparator  measured_value
 0    FC(F)(F)c1cc(Cl)c2ncc(CSCc3ccccc3)n2c1           =             8.8
 1               Cc1cccn2c(CSCc3ccccc3)cnc12           =             0.3
 2           Cc1cc(Br)cn2c(CSCc3ccccc3)cnc12           =               7
 3               Cc1ccn2c(CSCc3ccccc3)cnc2c1           =              17
 4           Cc1ccn2c(CSCc3ccc(Cl)cc3)cnc2c1           >               5
 5  O=c1[nH]c(=O)n([C@H]2C[C@H](O)[C@@H](CO)O2)cc1/C=C/Br [BRIVUDINE]           =           0.002
 6       Cc1c(Br)cc(Br)c2ncc(CSCc3ccccc3)n12           >              50
 7            Cc1ccn2c(CSCc3ccccc3)c(C)nc2c1           >               5
 8    Cc1ccn2c(CSCc3ccccc3)c(-c3ccccc3)nc2c1           >              20
 9           Cc1cc(Br)c2ncc(CSCc3ccccc3)n2c1           >              50
10              Cc1ccn2c(CSCCc3ccccc3)cnc2c1           =             0.5
11             Cc1ccn2c(CSCc3ccccc3Cl)cnc2c1           >               5
